Target: CDK12/CycK (Homo sapiens)
Sequence (Q9NYV4 with tags, fused parts or gaps): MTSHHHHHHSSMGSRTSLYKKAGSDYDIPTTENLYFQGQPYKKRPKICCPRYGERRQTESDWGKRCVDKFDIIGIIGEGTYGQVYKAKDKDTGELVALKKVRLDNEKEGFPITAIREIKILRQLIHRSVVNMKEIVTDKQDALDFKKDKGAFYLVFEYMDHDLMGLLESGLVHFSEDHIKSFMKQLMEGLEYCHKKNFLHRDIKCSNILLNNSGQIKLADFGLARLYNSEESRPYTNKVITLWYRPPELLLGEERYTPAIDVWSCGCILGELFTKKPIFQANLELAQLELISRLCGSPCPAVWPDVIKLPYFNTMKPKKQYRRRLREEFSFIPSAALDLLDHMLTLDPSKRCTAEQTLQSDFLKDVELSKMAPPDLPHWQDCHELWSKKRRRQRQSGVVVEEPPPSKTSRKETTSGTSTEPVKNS
Sequence (O75909 1-300 partner limits assumed): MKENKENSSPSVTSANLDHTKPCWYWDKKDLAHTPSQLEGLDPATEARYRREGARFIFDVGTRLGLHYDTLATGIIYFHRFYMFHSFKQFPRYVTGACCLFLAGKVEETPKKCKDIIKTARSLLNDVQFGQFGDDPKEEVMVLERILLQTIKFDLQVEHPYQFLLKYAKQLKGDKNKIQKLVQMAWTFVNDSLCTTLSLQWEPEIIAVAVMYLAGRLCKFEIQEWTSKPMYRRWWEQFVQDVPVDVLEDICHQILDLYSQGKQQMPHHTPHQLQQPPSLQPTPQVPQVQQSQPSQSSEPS
Test: CDK12/CycK high ATP kinase assay (TR-FRET, 2 mM ATP)
Details: 2 mM ATP (high ATP); median; read-out: CDK12/CyclinK, 2 mM ATP (high ATP), IC50-[mol/l] (median)
Experimental: In the context of the present invention, the term “IC50 CDK12 hATP” refers to the IC50 values obtained according to the assay described in this section (2.2) herein below, i.e. the IC50 values for the inhibition of CDK12 at high (2 mM) ATP. […]
Entries annotated with measured log10(IC50)
Assay Readout: log10(IC50) (log10 of the value in µM)

INSERT INTO assay_data (compound, measured_number) VALUES
  ('Fc1cccc(-c2nnc(CNc3nc(N4CCNCC4)nc4c(Br)cnn34)[nH]2)c1 [Example 152]', 0.48),
  ('Cc1ccnc2[nH]c(CNc3nc(N4CCN(C)CC4)nc4c(C(C)C)cnn34)nc12 [Example 32]', 1.27),
  ('Brc1cnn2c(NCc3nnc(-c4ccccc4)[nH]3)nc(N3CCCC3)nc12 [Example 64]', 0.74),
  ('Fc1cc2nc(CNc3nc(N4CCOCC4)nc4c(C5CC5)cnn34)[nH]c2cc1F [Example 318]', 0.13),
  ('CN(CC1CC1)c1nc(NCc2nc3ccccc3[nH]2)n2ncc(Br)c2n1 [Example 287]', 1.03);
